Entries and their %-inhibition of MSK2 values follow.
TARGET OR TEST SYSTEM: panel of more than 300 wild-type and mutant kinases (313 kinase panel) (Homo sapiens, UniProt O75676)
TEST PROTOCOL: Kinase profiling in a biochemical assay panel (mobility shift assays and ELISA), %-inhibition at 1 μM; selectivity entropy
SETTINGS: kinase MSK2; 1 μM
Provide only the numeric value, understood in %.

Look over these answered cases.
INSERT INTO assay_data (molecule_smiles, numeric_result) VALUES
  ('CS(=O)(=O)CCNCc1ccc(-c2ccc3ncnc(Nc4ccc(OCc5cccc(F)c5)c(Cl)c4)c3c2)o1', 2),
  ('CO[C@H]1C[C@@H]2CC[C@@H](C)[C@@](O)(O2)C(=O)C(=O)N2CCCC[C@H]2C(=O)O[C@H]([C@H](C)C[C@@H]2CC[C@@H](OC(=O)C(C)(CO)CO)[C@H](OC)C2)CC(=O)[C@H](C)/C=C(\C)[C@@H](O)[C@@H](OC)C(=O)[C@H](C)C[C@H](C)/C=C/C=C/C=C/1C', -5),
  ('Cc1ccc(C(=O)Nc2ccc(CN3CCN(C)CC3)c(C(F)(F)F)c2)cc1C#Cc1cnc2cccnn12', 27);

Ask | Give the reported %-inhibition of MSK2 for this molecule. CC(=O)Nc1cccc(-n2c(=O)n(C3CC3)c(=O)c3c(Nc4ccc(I)cc4F)n(C)c(=O)c(C)c32)c1
Reply | -4.75

Ask | Give the reported %-inhibition of MSK2 for this molecule. COc1cc2c(Nc3ccc(Br)cc3F)ncnc2cc1OCC1CCN(C)CC1
Reply | -3.21

Ask | Give the reported %-inhibition of MSK2 for this molecule. Cc1ccc(Nc2nccc(N(C)c3ccc4c(C)n(C)nc4c3)n2)cc1S(N)(=O)=O
Reply | 1.45

Ask | Give the reported %-inhibition of MSK2 for this molecule. Cc1cn(-c2cc(NC(=O)c3ccc(C)c(Nc4nccc(-c5cccnc5)n4)c3)cc(C(F)(F)F)c2)cn1
Reply | 2.55

Ask | Give the reported %-inhibition of MSK2 for this molecule. CO[C@H]1C[C@@H]2CC[C@@H](C)[C@@](O)(O2)C(=O)C(=O)N2CCCC[C@H]2C(=O)O[C@H]([C@H](C)C[C@@H]2CC[C@@H](OCCO)[C@H](OC)C2)CC(=O)[C@H](C)/C=C(\C)[C@@H](O)[C@@H](OC)C(=O)[C@H](C)C[C@H](C)/C=C/C=C/C=C/1C
Reply | -7
